The values you see were collected from PubChem BioAssay (NCI).

Tested on: MALME-3M melanoma
procedure text: NCI tumour cell line growth inhibition, 48 h
measured property: TGI

Examples with their reported TGI follow.
| molecule | TGI |
| --- | --- |
| O=C(/C=c1\oc(=O)/c(=C/C(=O)c2ccc(Cl)cc2)oc1=O)c1ccc(Cl)cc1 | > 100 µM |
| COc1nc2c(cc1S(=O)(=O)c1ccccc1)CCc1c-2cnn1Cc1ccccc1 | > 100 µM |

Continue with the molecule presented below.
# query: TGI of entry CC(O)CCNC(=O)Nc1c(C(F)(F)F)cc(-c2ccccc2)[nH]c1=O (stereo not drawn) > 100 µM

###

Tested on: HCT-116 colon
procedure text: NCI tumour cell line growth inhibition, 48 h
Reported TGI is given for each of the following compounds.

| compound | subject of test | TGI |
| --- | --- | --- |
| C=CCOc1ccc(C2(c3ccc(OCC=C)cc3)C(=O)Nc3ccccc32)cc1 | HCT-116 colon | > 10 µM |
| CN(C(=O)[C@@H](NC(=O)OC(C)(C)C)c1ccccc1)[C@H]1CCCC[C@@H]1N1CCCC1 | HCT-116 colon | > 100 µM |
| CC[C@@]1(O)C[C@H](OC2CC(N(C)C)C(OC3CC(O)C(OC4CCC(=O)C(C)O4)C(C)O3)C(C)O2)c2c(cc3c(c2O)C(=O)c2c(O)ccc(O)c2C3=O)[C@H]1C(=O)OC (some centres undefined) | HCT-116 colon | < 0.0001 µM |

Continue with the compound presented below.
# query: TGI of entry `Cc1cc(Cl)ccc1NC(=O)C(=O)Cc1ccc([N+](=O)[O-])c([N+](=O)[O-])c1CC(=O)C(=O)Nc1ccc(Cl)cc1C` > 100 µM

###

Tested on: OVCAR-5 ovarian
procedure text: NCI tumour cell line growth inhibition, 48 h; in the data active = GI50 below about 0.43 µM; inactive = the rest
// allowed return values: active, inactive

These recorded examples may help you get a feel for the data.
| molecule | category |
| --- | --- |
| C=C(C)[C@@H]1CC[C@]2(C(=O)Nc3ccccn3)CC[C@]3(C)[C@H](CC[C@@H]4[C@@]5(C)CCCNC(C)(C)[C@@H]5CC[C@]43C)[C@@H]12 | inactive |
| COc1cc(/C=C2\CCCC3C2=Nc2ccccc2NC3c2cc(OC)c(OC)c(OC)c2)cc(OC)c1OC (stereo not drawn) | inactive |
| COc1cc(-c2cc(-c3nc4cc(Cl)c(Cl)cc4[nH]3)[nH]n2)cc(OC)c1OC | inactive |
| C=CC(=O)NCCOc1cccc(Nc2cc(NCCCNC(=O)C3CCC3)c(Br)cn2)c1 | inactive |
| O=C(Nc1ccc(Cl)cc1F)c1cc(F)ccc1O | inactive |

Hello, I am checking results. What call was entered for `O=C1c2ccc3c4c(ccc(c24)C(=O)N1CCCNCc1ccccc1)C(=O)N(CCCNCc1ccccc1)C3=O` ? active

Hello, I am checking results. What call was entered for `Clc1nc(Cl)c2ncn(C/C=C/Cn3cnc4c(Cl)nc(Cl)nc43)c2n1` ? inactive

Hello, I am checking results. What call was entered for CC(N)(Cc1c[nH]c2ccccc12)C(=O)O (stereo not drawn) ? inactive

Hello, I am checking results. What call was entered for `Cc1c2cnccc2c(C)c2c1c1cc(C(=O)O)ccc1n2C` ? inactive

Hello, I am checking results. What call was entered for `COc1cc(OC)cc(-c2ccc(-c3ccc(C(=N)N)s3)s2)c1` ? inactive

Hello, I am checking results. What call was entered for CCN1CCC2(CC1)NC(=O)c1c(c3ccc(Cl)c(Cl)c3n1C)C2C#N (stereo not drawn) ? inactive

Hello, I am checking results. What call was entered for COc1cccc2c1C(=O)c1c(O)c3c(c(O)c1C2=O)C[C@@](O)(C(=O)CO)C[C@@H]3OC1CC(OC(C)=O)C(OC(C)=O)C(C)O1 (stereo partly drawn) ? inactive

Hello, I am checking results. What call was entered for `COc1ccc(N2CCN(CN3CCN(c4ccc(OC)cc4)C3)C2)cc1` ? inactive

###

Reported TGI is given for each of the following compounds.
Tested on: A498 renal
procedure text: NCI tumour cell line growth inhibition, 48 h

Examples with their reported TGI follow.
| compound | TGI |
| --- | --- |
| CC(=O)/C(N=Nc1ccc(-n2c(C)nc3ccc(Br)cc3c2=O)cc1)=C(/C)O | > 100 µM |
| CC(N)(Cc1c[nH]c2ccccc12)C(=O)O (stereo unspecified) | > 2500 µM |
| CCCCCCCC/C=C\CCCCCCCC(=O)OC[C@]1(CO)CCC(=O)O1 | > 100 µM |
| Fc1ccc2c(c1)SC1Oc3ccccc3-c3c1c-2nn3-c1ccccc1 (stereo unspecified) | > 100 µM |
| C=CC1(c2ccccc2Cl)N/C(=C/OCC)CO1 (stereo unspecified) | > 100 µM |

# query: TGI of entry `Clc1ccccc1-c1nc(-c2ccncc2)no1` > 100 µM

# query: TGI of entry `Nc1cc(S(=O)(=O)O)cc2cc(S(=O)(=O)O)c(N=Nc3ccc(-c4ccc(N=Nc5c(S(=O)(=O)O)cc6cc(S(=O)(=O)O)cc(N)c6c5O)cc4)cc3)c(O)c12` > 100 µM

# query: TGI of entry `CC1=C(C(=O)NNC(=O)C(N)=O)CC(C(=O)NNC(=O)C(N)=O)=C(C)N1` > 100 µM

# query: TGI of entry `CCc1nc(-n2c(CC)nc3ccccc3c2=O)nc(N)c1-c1ccc(Cl)cc1` > 94.5 µM

# query: TGI of entry `CC(=O)Nc1ccc(-c2nc3ccccc3s2)cc1Cl` > 100 µM

# query: TGI of entry `COC(=O)C1=C([C@H]2COC(C)(C)O2)[C@H]2C[C@@H]1[C@@H]1OC(C)(C)O[C@@H]12` > 100 µM

###

System: UACC-62 melanoma
procedure text: NCI tumour cell line growth inhibition, 48 h
Reported TGI is given for each of the following compounds.
Field format: number, assumed µM, no unit text.

| compound | measured property | value |
| --- | --- | --- |
| CN(C)C(=S)/N=c1\ssc(=S)n1-c1ccccc1 | TGI | 30.6 |

# query: TGI of entry `FC(F)(F)c1[nH]ncc1-c1nc2c(N3CCCCC3)cc3[nH]ncc3c2c2c1CCCC2` 1.41

# query: TGI of entry Cc1cc(O)c(C2=NN(c3ccc(S(N)(=O)=O)cc3)C(c3ccccc3O)C2)cc1Cl (stereo unspecified) 6.59

# query: TGI of entry `CCNc1nc(N)c(C(=O)c2cccs2)s1` 51.8

# query: TGI of entry Nc1ccc(C(=O)NN2C(=O)C(Cl)C2c2cc(Br)cc(Br)c2O)cc1 (stereo unspecified) 24.8

###

Reported TGI is given for each of the following compounds.
Tested on: NCI-H522 lung
procedure text: NCI tumour cell line growth inhibition, 48 h

# query: TGI of entry `CC1=C(C(=O)NNC(=O)C(N)=O)CC(C(=O)NNC(=O)C(N)=O)=C(C)N1` > 100 µM

# query: TGI of entry `NC(N)=NCc1ccc2c(c1)OCO2` > 100 µM

# query: TGI of entry `CCN(CC)CCOc1ccc(N2Cc3ccccc3C2=O)cc1` > 10 µM

# query: TGI of entry O=C(O)CC(C(=O)O)C1c2ccccc2-c2ccccc21 (centres undefined) > 100 µM

###

Test system: EKVX NSCLC
procedure text: NCI tumour cell line growth inhibition, 48 h
Reported TGI is given for each of the following compounds.

| compound | TGI |
| --- | --- |
| CCN(CC)C(=S)SC(=S)N(CC)CC | > 100 µM |
| CCOC(=O)C12CCSC1C1(C#N)C(C#N)=CC2(N=P(c2ccccc2)(c2ccccc2)c2ccccc2)n2c(=O)n(-c3ccccc3)c(=O)n21 (stereo unspecified) | > 100 µM |
| Cc1ccc(C(=O)OC(C)C)cc1N=NN(C)C | > 100 µM |
| CC(C)Oc1c(C2(c3ccccc3O)SCCCS2)c(=O)c1=O | > 100 µM |

# query: TGI of entry `Nc1c(S(=O)(=O)O)cc(Nc2cccc(S(N)(=O)=O)c2)c2c1C(=O)c1ccccc1C2=O` > 100 µM

# query: TGI of entry CCCC(=O)OCC1(CO)C/C(=C/CC(C(C)C)C(C)C)C(=O)O1 (stereo unspecified) > 100 µM

# query: TGI of entry `O=S(=O)(O)c1cc(N=Nc2cc(S(=O)(=O)O)c3ccccc3c2O)ccc1/C=C/c1ccc(N=Nc2cc(S(=O)(=O)O)c3ccccc3c2O)cc1S(=O)(=O)O` > 632 µM

# query: TGI of entry `C/C1=N\NC(=O)c2ccccc2C(=O)N/N=C(\C)c2cccc1n2.O=[N+]([O-])[O-].[Zn+2]` > 100 µM

# query: TGI of entry `CC1(C)C(=O)N(O)C(C)(C)N1N=O` > 10 µM

# query: TGI of entry O=S(Nc1ccccc1)c1ccc(-c2ccccc2)cc1 (stereo unspecified) > 100 µM

# query: TGI of entry CC(C)(O)/C=C\P(C)(=O)c1ccccc1 (stereo unspecified) > 100 µM
